# System: MALME-3M melanoma
# Assay comment: NCI tumour cell line growth inhibition, 48 h
For each record, write down the corresponding TGI.

Please review the entries below; each comes with its answer.
>>> endpoint_value("CC(C)(O)C1CC[C@]2(C)[C@H]3CC[C@@H]4[C@@]5(C)CCCC(C)(C)[C@@H]5CC[C@@]4(C)[C@]3(C)CC[C@@H]12 (some centres undefined)")
"> 100 µM"
>>> endpoint_value("Cc1cccc2c1c1ccc3c(c1n2C)C(=O)C=CC3=O")
"14 µM"
>>> endpoint_value("Oc1ccccc1C1C=C(c2ccccc2)NC(N2CCCCC2)=C1c1nc2ccccc2[nH]1 (centres undefined)")
"29.6 µM"
>>> endpoint_value("O=C(Nc1ccc(-n2ccc3c(NC(=O)c4ccccc4)ncnc32)cc1)c1cccc(C(F)(F)F)c1")
"26.1 µM"
>>> endpoint_value("CNNC(=N\\S(=O)(=O)c1cc(C)c(Cl)cc1SCc1ccccc1)/N=C/c1ccc([N+](=O)[O-])s1")
"> 64.2 µM"

Respectfully, I request TGI for each entry included below.
1. O=C1CC(C(OCc2ccccc2)C(OCc2ccccc2)C(COCc2ccccc2)OCc2ccccc2)CC(=O)N1 (centres undefined)
2. C#CCNC(=O)NCCCCC(NC(=O)OCc1ccccc1)C(=O)OCc1ccccc1 (centres undefined)
3. O=S(=O)(c1ccc(-c2nnc(-c3ccc(F)cc3)o2)cc1)c1ccc(-c2nnc(-c3ccc(F)cc3)o2)cc1

result:
["> 100 µM", "> 100 µM", "> 100 µM"]

query: Missing value: TGI, MALME-3M melanoma, entry O=C(O)CC[P+](c1ccccc1)(c1ccccc1)c1ccccc1 . Fill in?
result: > 100 µM

====

# System: HCT-116 colon
# Assay comment: NCI tumour cell line growth inhibition, 48 h
Could you please report measured TGI for the items listed next?

>>> endpoint_value("COc1ccc(OC(C(=O)O)C(C)C)c2c1CCCC2=O (stereo unspecified)")
"> 100 µM"
>>> endpoint_value("N#C/C(=C\\c1cccc(O)c1O)C(N)=O")
"> 100 µM"
>>> endpoint_value("COc1ccc(C2OCCN2C)cc1 (stereo unspecified)")
"> 100 µM"
>>> endpoint_value("O=C(/C=C/c1ccc(C(F)(F)F)cc1)Nc1ccc(C=C2c3ccccc3C(=O)c3ccccc32)cc1")
"> 100 µM"
>>> endpoint_value("COC(=O)C1C(=O)CC2CCCCC21 (stereo unspecified)")
"> 100 µM"

Please state, for each entry, its recorded TGI.
1. O=c1c2cc(-c3ccccc3)sc2ncn1Cc1ccc(Cl)c(Cl)c1
2. Clc1cccc(N2CCN(CCCN3CCc4c([nH]c5ccccc45)C3c3cccnc3)CC2)c1 (stereo unspecified)
3. CCCCCCCCOC(=O)c1c(C)[nH]c(/C=C2\N=C(c3ccc[nH]3)C=C2OC)c1C
4. Cc1c(OCc2ccccc2)c(=O)ccn1CCc1c[nH]c2ccccc12
5. CC(C)(C)CC(C)(C)NC(=S)NO

result:
41.1 µM
24.9 µM
1.25 µM
> 100 µM
> 100 µM

query: GET /values?readout=TGI&item= CN1CN(c2ccccc2)C2(CCN(CCCCCCF)CC2)C1=O
result: > 100 µM

====

# System: SNB-75 CNS
# Assay comment: NCI tumour cell line growth inhibition, 48 h
Quantity measured: GI50

Here are 3 compounds together with their reported answers.
>>> endpoint_value("CN1CCN(Cc2ccc(NC(=O)c3cncc(C#Cc4cnc(N)cc4C#N)c3)cc2C(F)(F)F)CC1")
"5.92 µM"
>>> endpoint_value("NC(=O)[C@@H](CC1CC1)[C@@H](CCC(F)(F)F)C(=O)N[C@H]1N=C(c2ccccc2)c2cccc(F)c2NC1=O")
"16.3 µM"
>>> endpoint_value("CN(Cc1ccc(C(F)(F)F)cc1)CC(O)C(=O)Nc1ccc(Cl)cc1 (stereo not drawn)")
"1.31 µM"

Hi there! I need GI50 for each item below, if you can.
1. C=C1C(=O)O[C@H]2[C@H]1CC/C(COC(=O)NCc1ccc(OC)cc1)=C\CC[C@@]1(C)O[C@@H]21
2. O=C1C2=C(C(=O)c3cnccc31)C1C=CC2CC1 (stereo not drawn)
3. Cc1cc(C)c2c(n1)sc1c(N)ncnc12
4. CCC(C)Oc1nc2c(c(=O)n(C)c(=O)n2C)n1C (stereo not drawn)
5. O=C(/C=C/c1ccc(C(F)(F)F)cc1)Nc1ccc(C=C2c3ccccc3C(=O)c3ccccc32)cc1

result:
["1 µM", "1.34 µM", "> 20.8 µM", "> 100 µM", "7.26 µM"]

====

# Test system: SK-MEL-2 melanoma
# Assay comment: NCI tumour cell line growth inhibition, 48 h; in the data active = GI50 below about 0.43 µM; inactive = the rest
One label from this list, please: active, inactive

Please review the entries below; each comes with its answer.
>>> class("CC1CN(S(=O)(=O)c2oc(-c3ccc(Cl)cc3)nc2C#N)CC(C)O1 (stereo unspecified)")
"inactive"
>>> class("CN(C)CCNC(=O)c1ccc(-c2nc3ccc4[nH]ncc4c3c3c2C2CCC3C2)cc1 (stereo unspecified)")
"inactive"
>>> class("O=c1c2cc(-c3ccccc3)sc2ncn1Cc1ccc(Cl)c(Cl)c1")
"inactive"
>>> class("CCOC(=O)c1c(C)n(Cc2ccc(Cl)cc2Cl)c2c1cc1oc(=O)c(=O)n3cnc2c13")
"inactive"
>>> class("O=C(/C=C/c1ccc(C(F)(F)F)cc1)Nc1ccc(C=C2c3ccccc3C(=O)c3ccccc32)cc1")
"inactive"

query: Given COC(=O)C12CC(NC(=O)c3csc([C@@H](C[C@H](C(C)C)N(C)C(=O)[C@@H](NC(=O)[C@H]4CCCCN4C)C4CC4)OC(C)=O)n3)(C1)C2 , state the outcome it received in this test.
result: active

query: Please give the result for COc1cc2ncnc(-n3ncc4cc(NC(=O)Nc5ccc(Cl)c(Cl)c5)ccc43)c2cc1OC too.
result: inactive

query: Again, but for CCC(C)Oc1nc2c(c(=O)n(C)c(=O)n2C)n1C (stereo unspecified)
result: inactive

query: Same question for COC(=O)c1cc2c(cc1Cl)SC1=NN(C)S(=O)N1S2(=O)=O (stereo unspecified) please.
result: inactive

query: Please answer likewise for N#C/C(=C\c1ccc([N+](=O)[O-])s1)c1nc2cc(Cl)ccc2s1
result: inactive

query: Now the molecule COc1ccc(Nc2nc3ccccc3c3occc23)cc1
result: inactive

====

# System: HOP-92 NSCLC
# Assay comment: NCI tumour cell line growth inhibition, 48 h
Quantity measured: GI50

Solved entries (count: 2):
>>> endpoint_value("CN1CCN(CCOc2ccc(-c3cnc4c(-c5cccc(F)c5)cnn4c3)cc2)CC1")
"1.41 µM"
>>> endpoint_value("CN1CCN(Cc2ccc(NC(=O)c3cncc(C#Cc4cnc(N)cc4C#N)c3)cc2C(F)(F)F)CC1")
"0.906 µM"

query: Need GI50 of C=C1C(=O)O[C@H]2[C@H]1CC/C(COC(=O)NCc1ccc(OC)cc1)=C\CC[C@@]1(C)O[C@@H]21 , thanks.
result: 0.559 µM

====

# System: SN12C renal
# Assay comment: NCI tumour cell line growth inhibition, 48 h
Quantity measured: TGI (µM)
Numbers only, in µM.

Here is how some compounds turned out for TGI.
>>> endpoint_value("CN(C)CCNC(=O)c1ccc(-c2nc3ccc4[nH]ncc4c3c3c2C2CCC3C2)cc1 (stereo not given)")
6.88
>>> endpoint_value("COC(=O)C1=C(O)C(C(=O)OC)[C@]2(O)[C@@H](C(=O)OC)[C@H]1C[C@@H](c1ccccc1)[C@@H]2C(=O)OC (stereo not given in full)")
32.1

query: Query (compound): CCN1CCN(Cc2ccc(NC(=O)Nc3nc4ccc(Oc5ccnc(C(=O)NC)c5)cc4s3)cc2C(F)(F)F)CC1 ; field requested: TGI
result: 3.66

====

# System: UACC-62 melanoma
# Assay comment: NCI tumour cell line growth inhibition, 48 h; in the data active means GI50 below about 0.43 µM; inactive means the rest
Respond with a class label; see active, inactive

Solved cases (5 shown):
>>> class("C=C1C(=O)O[C@H]2[C@H]1CC/C(COC(=O)NCc1ccc(OC)cc1)=C\\CC[C@@]1(C)O[C@@H]21")
"inactive"
>>> class("Cn1cccc1-c1cc(-c2ccccc2)[nH]c(=O)c1C#N")
"inactive"
>>> class("CCN1CCN(c2cc(C)nc(N(CCCNc3ccnc4cc(Cl)ccc34)Cc3ccc4c(c3)OCO4)n2)CC1")
"inactive"
>>> class("CCN1CCN(Cc2ccc(NC(=O)Nc3nc4ccc(Oc5ccnc(C(=O)NC)c5)cc4s3)cc2C(F)(F)F)CC1")
"inactive"
>>> class("CC1CN(S(=O)(=O)c2oc(-c3ccc(Cl)cc3)nc2C#N)CC(C)O1 (centres undefined)")
"inactive"

query: Identify the outcome logged in this assay for the compound shown: c1cc(-c2nnc(SSc3ncnc4nc[nH]c34)o2)ccn1
result: inactive

query: Entry CC(C)c1nc(N(C)S(C)(=O)=O)nc(-c2ccc(F)cc2)c1/C=C/[C@@H](O)C[C@@H](O)CC(=O)O please
result: inactive

query: Also CC(C)(O)/C=C/C(=O)[C@](C)(O)[C@H]1[C@H](O)C[C@@]2(C)[C@@H]3CC=C4[C@@H](C[C@H](O)C(=O)C4(C)C)[C@]3(C)C(=O)C[C@]12C ?
result: active

query: Same lookup for CCCCCN(CCCCC)CC(O)c1cc(Cl)ccc1OC (centres undefined) , please.
result: inactive

query: Next record, please: CCn1c(-c2cc3c([nH]c4ccccc43)c(-c3cccc(O)c3)n2)n[nH]c1=S
result: inactive

query: Similarly, NC(=O)[C@@H](CC1CC1)[C@@H](CCC(F)(F)F)C(=O)N[C@H]1N=C(c2ccccc2)c2cccc(F)c2NC1=O ?
result: inactive

query: And the next one, COC(=O)C12CC(NC(=O)c3csc([C@@H](C[C@H](C(C)C)N(C)C(=O)[C@@H](NC(=O)[C@H]4CCCCN4C)C4CC4)OC(C)=O)n3)(C1)C2 ?
result: active

query: Then this compound: Cc1cc(C)c2c(n1)sc1c(N)ncnc12
result: inactive

query: And then NCCCCC1NC(=O)C(CC(=O)O)NC(=O)CNC(=O)C(CCCN=C(N)N)NC(=O)C(N)CSSCC(C(=O)O)NC(=O)C(CC(=O)O)NC(=O)C2CCCN2C(=O)CNC1=O (centres undefined) , what is it?
result: inactive
